# Lookup of reported GI50 keyed by entry
Tested on: SF-295
Experiment: NCI tumour cell line growth inhibition, 48 h
Active and inactive are the calls of the source. No stated cut-off is given here; in the data, active = GI50 up to about 1.1 µM and inactive = higher.

Record excerpt, results attached:
[[record]]
molecule = "O=C1C2ON3c4ccccc4C(=O)C3(c3ccccc3)C2C(=O)N1c1ccccc1 (stereo unspecified)"
test_result = "> 100 µM (inactive)"

[[record]]
molecule = "CCOC(=O)NC(=S)NC(C)c1ccccc1 (stereo unspecified)"
test_result = "> 100 µM (inactive)"

[[record]]
molecule = "COc1cc(C2C(Cl)C(=O)N2NC(=O)c2ccc(N)cc2)ccc1O (stereo unspecified)"
test_result = "67.8 µM (inactive)"

[[record]]
molecule = "CC(C)=CC(=O)Cc1nc2ccc([N+](=O)[O-])cc2[nH]c1=O"
test_result = "> 100 µM (inactive)"

[[record]]
molecule = "N=C(N)N/N=C\\c1ccc(C2CCNCC2)cc1"
test_result = "> 100 µM (inactive)"


# ---- query molecule ----
Measured GI50, CC(C)(C)C1=CC(CCC(=O)Nc2ccccc2[N+](=O)[O-])=NC(S)N1 (stereo unspecified) : > 100 µM (inactive)
